- TEST SYSTEM: Nuclear receptor subfamily 1 group I member 3 (Homo sapiens)
- ASSAY INFO: qHTS assay to identify small molecule antagonists of the constitutive androstane receptor (CAR) signaling pathway (AID 1224838);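 also: HepG2 cells stably expressing hCAR with CYP2B6 luciferase reporter stimulated by CITCO; nearly all actives have a fitted effect of over 40% in size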
- DETAILS: HepG2-CYP2B6-hCAR luciferase, CITCO-stimulated, 24 h; series mostly up to 92.4 µM
Records with an inconclusive call do not appear. Active and inactive are the calls of the source. Calls follow the shape of the dose curve; as a rule, active = well fitted inhibition curve with a large enough effect in the repeat runs; inconclusive = weak or mixed curves, or effect the other way; inactive = no such curve, though single readings can be large or run the other way.
Labels: active, inactive

{"MOLECULE": "Nc1ccc(Oc2cccc(Oc3ccc(N)cc3)c2)cc1", "ASSIGNED CATEGORY": "active"}
{"MOLECULE": "CCOC(=O)[C@H](C)O", "ASSIGNED CATEGORY": "inactive"}
{"MOLECULE": "CCCOC(=O)c1ccc(O)cc1", "ASSIGNED CATEGORY": "inactive"}
{"MOLECULE": "NCc1ccco1", "ASSIGNED CATEGORY": "inactive"}
{"MOLECULE": "CCCCCCCCCCCCN1CCCC1=O", "ASSIGNED CATEGORY": "inactive"}
{"MOLECULE": "O=C(CCN1CCC(c2ccccc2)C1)c1ccc2c(c1)OCCO2 (configuration not stated)", "ASSIGNED CATEGORY": "inactive"}
{"MOLECULE": "CCCCCN=C(N)N/N=C/c1c[nH]c2ccc(OC)cc12", "ASSIGNED CATEGORY": "active"}

* * *

- ASSAY INFO: qHTS assay to identify small molecule antagonists of the estrogen related receptor (ERR) signaling pathway - cell viability counter screen (AID 1224818);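 also: viability measured after 17.5 h of compound exposure; % is scaled to controls: 0 for no effect and ±100 for the full control effect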
- DETAILS: ERR reporter cell line viability counter screen; series mostly up to 46.1 µM
- Experimental: National Center for Advancing Translational Sciences [NCATS] NIH Chemical Genomics Center [NCGC] U.S. Environmental Protection Agency [EPA] National Institutes of Environmental Health Sciences [NIEHS] National Toxicology Program [NTP] U.S. Food and Drug Administration [FDA] […] The ERR cells were dispensed at 2,000 cells/5 ul/well in 1536-well white plates using a Multidrop dispenser. […] After 30 min incubation at 37 C/5% CO2, the fluorescence intensity in the plates was measured using a ViewLux plate reader.
Records with an inconclusive call do not appear. Calls of active or inactive are those of the source. Calls come from the whole dose curve; as a rule, active = well fitted cell-killing curve with a large enough effect in the repeat runs; inconclusive = weak or mixed curves; inactive = flat fitted curve, though single readings scatter.

{"MOLECULE": "COc1cc2c(cc1OC)C1CC(=O)C(CC(C)C)CN1CC2 (stereo unspecified)", "outcome": "inactive"}
{"MOLECULE": "N[C@@H](CCCC(=O)O)C(=O)O", "outcome": "inactive"}
{"MOLECULE": "O=C1/C(=C/c2ccsc2)CC/C1=C\\c1cccs1", "outcome": "inactive"}
{"MOLECULE": "CC(C)(C)c1cc(/C=C(\\C#N)C(N)=S)cc(C(C)(C)C)c1O", "outcome": "inactive"}
{"MOLECULE": "N=C(N)c1ccc(OCCCCCOc2ccc(C(=N)N)cc2)cc1 (tested in a mixture with another compound)", "outcome": "inactive"}
{"MOLECULE": "O=C(O)[C@H]1NCCC[C@H]1C(=O)O", "outcome": "inactive"}
{"MOLECULE": "O=c1[nH]c2cc(Cl)ccc2c(O)c1-c1ccc(Oc2ccccc2)cc1", "outcome": "inactive"}
{"MOLECULE": "NC(=O)c1cccc(N)c1", "outcome": "inactive"}
{"MOLECULE": "COc1cc(/C=C(\\C#N)C(=O)Nc2nnc(C(F)(F)F)s2)ccc1OCc1ccc(C(F)(F)F)cc1C(F)(F)F", "outcome": "inactive"}
{"MOLECULE": "C[C@H](O)C(=O)C1=Nc2c(nc(N)[nH]c2=O)NC1", "outcome": "inactive"}
{"MOLECULE": "N#Cc1cc2nc(O)c(O)nc2cc1[N+](=O)[O-]", "outcome": "inactive"}

* * *

- ASSAY INFO: Human pregnane X receptor (PXR) small molecule agonists, qHTS cell viability counter screen (AID 1346977); also: % is scaled to controls: 0 for no effect and ±100 for the full control effect; nearly all actives have a fitted effect of over 50% in size
- DETAILS: PXR-Luc HepG2 viability, CellTiter-Fluor, 24 h; series mostly up to 92.4 µM
Results filed as inconclusive are left out. Calls of active or inactive are those of the source. Calls follow the shape of the dose curve; as a rule, active = well fitted cell-killing curve with a large enough effect in the repeat runs; inconclusive = weak or mixed curves, or effect the other way; inactive = flat fitted curve, though single readings scatter.

{"COMPOUND": "COc1cc(C(C)C)ccc1C", "activity change, negative = cytotoxicity": "1.46% [at 19 µM] (inactive)"}
{"COMPOUND": "CCCCNc1ccc(NCCCC)c2c1C(=O)c1ccccc1C2=O", "activity change, negative = cytotoxicity": "-9.38% [at 19 µM] (inactive)"}
{"COMPOUND": "O=C(O)C[C@H](O)C[C@H](O)/C=C/c1c(C2CC2)nc2ccccc2c1-c1ccc(F)cc1", "activity change, negative = cytotoxicity": "-7.27% [at 19 µM] (inactive)"}
{"COMPOUND": "C=CC(=O)OCCOC1C2CCC1C1CC=CC12 (stereo not given)", "activity change, negative = cytotoxicity": "5.4% [at 19 µM] (inactive)"}
{"COMPOUND": "CCCCCCCCCCCCS(=O)(=O)Cl", "activity change, negative = cytotoxicity": "2.87% [at 19 µM] (inactive)"}

* * *

- ASSAY INFO: Caspase-3/7 induction in HepG2 cells by small molecules, qHTS cell viability counter screen (AID 1346981); also: nearly all actives have a fitted effect of over 30% in size
- DETAILS: CellTiter-Fluor fluorescence, 17 h; series mostly up to 92.4 µM
Inconclusive results are not listed. Calls of active or inactive are those of the source. The call rests on the fitted dose curve; in most records, active means well fitted cell-killing curve with a large enough effect in the repeat runs; inconclusive means weak or mixed curves, or effect the other way; inactive means flat fitted curve, though single readings scatter.
Labels: t (active), f (inactive)

{"COMPOUND": "CC(O)(c1ccc(Cl)cc1)c1ccc(Cl)cc1", "ASSIGNED CATEGORY": "f"}
{"COMPOUND": "Nc1cc([N+](=O)[O-])ccc1Cl", "ASSIGNED CATEGORY": "f"}
{"COMPOUND": "O=C1OC(O)C(C(Cl)Cl)=C1Cl (stereo not drawn)", "ASSIGNED CATEGORY": "t"}
{"COMPOUND": "Cc1cc(Br)ccc1NC(=O)CCl", "ASSIGNED CATEGORY": "t"}
{"COMPOUND": "CCN(CC)c1ccc(C=O)cc1", "ASSIGNED CATEGORY": "f"}
{"COMPOUND": "CCC(C)(C)c1ccc(CC(C)CN2C[C@@H](C)O[C@@H](C)C2)cc1 (stereo partly drawn)", "ASSIGNED CATEGORY": "f"}
{"COMPOUND": "Cc1cccc(C)c1C", "ASSIGNED CATEGORY": "f"}
{"COMPOUND": "CC1(C)[C@H](C(=O)OCc2cccc(Oc3ccccc3)c2)[C@@H]1C=C(Cl)Cl", "ASSIGNED CATEGORY": "f"}
{"COMPOUND": "Oc1ccc(Cl)cc1C1CCCC1", "ASSIGNED CATEGORY": "f"}
{"COMPOUND": "N#Cc1ccc(C/C(=N/NC(=O)Nc2ccc(OC(F)(F)F)cc2)c2cccc(C(F)(F)F)c2)cc1", "ASSIGNED CATEGORY": "f"}
{"COMPOUND": "CS(=O)(=O)c1ccc([C@@H](CC2CCCC2)C(=O)Nc2cnccn2)cc1Cl", "ASSIGNED CATEGORY": "t"}
{"COMPOUND": "Nc1ccc(N)c([N+](=O)[O-])c1", "ASSIGNED CATEGORY": "t"}
{"COMPOUND": "CC(C=O)c1ccccc1 (stereo not drawn)", "ASSIGNED CATEGORY": "f"}

* * *

- ASSAY INFO: qHTS assay to identify small molecule antagonists of the androgen receptor (AR) signaling pathway - cell viability counter screen (AID 743033; also: nearly all actives have a fitted effect of over 45% in size)
- DETAILS: AR-bla HEK293 viability, CellTiter-Glo luminescence, 16 h; series mostly up to 58.5 µM
Inconclusive results are not listed. Calls of active or inactive are those of the source. Calls follow the shape of the dose curve; as a rule, active = well fitted cell-killing curve with a large enough effect in the repeat runs; inconclusive = weak or mixed curves; inactive = no such curve, though single readings can be large or run the other way.
Labels: active, inactive

{"COMPOUND": "CCN(CC)C(=O)c1cccnc1", "ASSIGNED CATEGORY": "inactive"}
{"COMPOUND": "CC(=O)N[C@@H](C=O)[C@H](O)[C@H](O)[C@@H](O)CO", "ASSIGNED CATEGORY": "inactive"}
{"COMPOUND": "C[C@@H]1O[C@@H](OC[C@H]2O[C@@H](Oc3c(-c4ccc(OCCO)c(OCCO)c4)oc4cc(OCCO)cc(O)c4c3=O)[C@H](O)[C@@H](O)[C@@H]2O)[C@H](O)[C@H](O)[C@H]1O", "ASSIGNED CATEGORY": "inactive"}
{"COMPOUND": "CC[N+](CC)(CC)CCC(O)(c1ccccc1)C1CCCCC1 (centres undefined)", "ASSIGNED CATEGORY": "inactive"}
{"COMPOUND": "CN1[C@@H](CC(=O)c2ccccc2)CCC[C@H]1C[C@H](O)c1ccccc1", "ASSIGNED CATEGORY": "inactive"}
{"COMPOUND": "C=CC[N@@+]12CC[C@@]34c5ccccc5N5/C=C6/[C@H]7C[C@H]8[C@@]9(CC[N@@+]8(CC=C)C/C7=C/CO)c7ccccc7N(/C=C(/[C@@H](C[C@@H]31)/C(=C\\CO)C2)[C@H]54)[C@@H]69", "ASSIGNED CATEGORY": "inactive"}
{"COMPOUND": "C=CC[N+]1([C@H]2C[C@H]3[C@@H]4CC[C@H]5C[C@H](O)[C@@H](N6CCOCC6)C[C@]5(C)[C@H]4CC[C@]3(C)[C@H]2OC(C)=O)CCCC1", "ASSIGNED CATEGORY": "inactive"}
{"COMPOUND": "O=C(Nc1ccccc1)c1cc(Cl)ccc1O", "ASSIGNED CATEGORY": "active"}
{"COMPOUND": "N=C(N)c1ccc(/C=C/c2ccc(C(=N)N)cc2O)cc1", "ASSIGNED CATEGORY": "inactive"}
